Readings of GI50 for the listed molecules
Tested on: A498
Assay: NCI tumour cell line growth inhibition, 48 h
The source made the active and inactive calls. No stated cut-off is given here; in the data, active = GI50 up to about 1.1 µM and inactive = higher.

MOLECULE	EXPERIMENTAL VALUE
C=C1C(C2(C)C=CC(=O)OC3(C)COC(=O)CC32)C(OC=O)C(OC(=O)C(O)C(C)CC)C2(C)C(c3ccoc3)CC(OC(C)=O)C12O (stereo unspecified)	> 100 µM (inactive)

GI50 in this record for C/C=C(\CCOS(=O)(=O)c1ccc(C)cc1)[Si](C)(C)C : > 100 µM (inactive)

GI50 in this record for COC(=O)/C=C\C(C#N)(C#N)/N=C/c1ccc(Br)cc1 : 16.2 µM (inactive)

GI50 in this record for CCCCCCCCCc1nn2c(Cc3ccccc3)nnc2s1 : 18.2 µM (inactive)

GI50 in this record for COC1(CC[C@@H](C)COC2OC(CO)C(O)C(O)C2O)O[C@H]2C[C@H]3[C@@H]4CC=C5C[C@@H](OC6OC(CO)C(O)C(OC7OC(CO)C(O)C(O)C7O)C6OC6OC(C)C(O)C(O)C6O)CC[C@]5(C)[C@H]4CC[C@]3(C)[C@H]2[C@@H]1C (stereo partly specified) : 12.9 µM (inactive)

GI50 in this record for C=CC1ON(Cc2ccccc2)CCc2cc(OC)c(OC)cc21 (stereo unspecified) : 15.2 µM (inactive)

GI50 in this record for SC1=Nc2ccccc2-c2nc(-c3ccccc3)cc(-c3ccc(Br)cc3)c2C1 : 1.01 µM (active)

GI50 in this record for ClC1(c2ccccc2)c2ccc(Br)cc2-c2cc(Br)ccc21 : 18.8 µM (inactive)

GI50 in this record for C=C(C(=O)OC)[C@H]1CC/C(C)=C/CC/C(C)=C/CC[C@@]2(C)O[C@@H]2C1 : 22.1 µM (inactive)

###

System: Hs-578T
Assay: NCI tumour cell line growth inhibition, 48 h
The source made the active and inactive calls. No stated cut-off is given here; in the data, active = GI50 up to about 1.1 µM and inactive = higher.
Readings of GI50 for the listed compounds

Some entries whose results are on file:
> print(dat)
                                   compound  measured.property   experimental.value
1  CC(=O)OCC1C(=O)OCC1C(=O)N1Cc2cc3ccccc3nc2C1 (centres undefined)               GI50   7.14 µM (inactive)
2   C=CCCC1(CCP(=O)(c2ccccc2)c2ccccc2)OCCO1               GI50  > 100 µM (inactive)
3  CC1=NN(c2ccc(C)cc2)C2(C1)SCC(=O)N2c1nc2ccccc2s1 (centres undefined)               GI50   32.1 µM (inactive)
4  O=C(O)C1CCN(Cc2oc(CO)cc(=O)c2O)C1 (centres undefined)               GI50  > 100 µM (inactive)
5  CC(O)[C@@]1(c2ccccc2)CC2(CCN(C)CC2)O[C@H]1C (some centres undefined)               GI50  > 100 µM (inactive)

GI50 in this record for CCOc1cc2c(cc1O)/C(=N/NS(=O)(=O)c1ccc(C)cc1)C[C@@H]1[C@@H]2CC[C@]2(C)[C@@H](O)CC[C@@H]12 : 7.57 µM (inactive)

GI50 in this record for O=C1C=CC(=O)c2cc(Sc3ccccc3)c(=O)ccc21 : 27.4 µM (inactive)

GI50 in this record for COc1cc(/C=C2\CCC(C)/C(=C\c3cc(OC)c(OC)c(OC)c3)C2=O)cc(OC)c1OC (centres undefined) : 8.81 µM (inactive)

GI50 in this record for CCCCCCCCCCCCOCC1(COCCCCCCCCCCCC)COC(c2ccc(N)cc2)OC1 : > 100 µM (inactive)

GI50 in this record for COc1c(C)c(C/C=C(\C)CC/C=C(\C)CCC=C(C)C)c(OC)c(OC)c1OC : > 100 µM (inactive)

GI50 in this record for Cn1c(=O)c(-c2ccccc2)c(N=[N+]=[N-])c2ccccc21 : 37.7 µM (inactive)

GI50 in this record for N[C@@H]1CCN(c2c(F)cc3c(=O)c(C(=O)O)cn4c3c2Oc2cc3c(ccc5ccccc53)cc2-4)C1 : 15.9 µM (inactive)

GI50 in this record for COC(=O)Cc1ccc(Oc2nc3ccccc3nc2-c2cccs2)cc1 : 39.8 µM (inactive)

GI50 in this record for C=CCOC(=O)Cn1ccc(=O)[nH]c1=O : > 100 µM (inactive)

###

Test system: SNB-75
Test: NCI tumour cell line growth inhibition, 48 h
Active and inactive are the calls of the source. Cut-off read from the data, not from the text of the source: active = GI50 up to about 1.1 µM and inactive = higher.
Assign a class; possible classes are y = active, n = inactive

COMPOUND	GROUP LABEL
O=c1cc(/N=N\c2ccc(Cl)cc2)[nH]c(=O)[nH]1	n
CCNC(=S)/N=c1\sc(NCC)nc2sc3c(c12)CCN(N1CCc2c(sc4nc(NCC)s/c(=N\C(=S)NCC)c24)C1)C3	n
COc1ccc2cc1Oc1ccc(cc1)C[C@@H]1c3cc(c(OC)cc3CCN1C)Oc1c(OC)c(OC)cc3c1[C@@H](C2)N(C)CC3	n

Asked: What did the test return for N#Cc1c2c(c(N=[N+]=[N-])n3c1nc1ccccc13)CCCC2 ?
Given back: n

Asked: What did the test return for Cc1nc(-c2cc3c(ccc4ccccc43)oc2=O)cs1 ?
Given back: n

Asked: What did the test return for Cc1cc(C)nc(NS(=O)(=O)c2ccc(NNC(=O)c3cccc4c(NNc5ccc(S(=O)(=O)Nc6nc(C)cc(C)n6)cc5)c5ccccc5nc34)cc2)n1 ?
Given back: n

Asked: What did the test return for CCC(/C=C/c1ccccc1)=N\N=C(\C=C\c1ccccc1)CC ?
Given back: n

Asked: What did the test return for CCOC(=O)/C(=C\c1ccc(N(CCC#N)CCC#N)cc1)NC(=O)c1cc([N+](=O)[O-])ccc1Cl ?
Given back: n

Asked: What did the test return for CC(=O)NC1C(OCc2ccccc2)OC(COC(=O)CCCCCCCCCCNC(=O)c2cccc3c(=O)c4ccccc4[nH]c23)C(O)C1OC(C)C(=O)NC(C)C(=O)NC(CCC(N)=O)C(N)=O (centres undefined) ?
Given back: n

Asked: What did the test return for N#C[C@H](OC1OC(COC2OC(CO)C(O)C(O)C2O)C(O)C(O)C1O)c1ccccc1 (some centres undefined) ?
Given back: n

Asked: What did the test return for Cc1cccc(CC(Cc2ccc(C)cc2C(=O)O)C(=O)O)c1 (centres undefined) ?
Given back: n

Asked: What did the test return for COc1cc([C@H]2c3cc4c(cc3[C@H](NCc3ccc([N+](=O)[O-])cc3)C3COC(=O)[C@H]32)OCO4)cc(OC)c1O (some centres undefined) ?
Given back: n

Asked: What did the test return for CCN(CC)CCCNc1nncc2cc3c([nH]c4ccccc43)c(C)c12 ?
Given back: n

Asked: What did the test return for CCCCN(CCCC)CC(=O)c1ccc2cc(Cl)c3ccccc3c2c1 ?
Given back: n

Asked: What did the test return for COc1ccc([N+](=O)[O-])c2c(NCCCN(C)C)ccnc12 ?
Given back: n

###

Test system: U-251
Test: NCI tumour cell line growth inhibition, 48 h
Activity calls are given as the source filed them. Cut-off read from the data, not from the text of the source: active = GI50 up to about 1.1 µM and inactive = higher.
MEASURED PROPERTY: GI50

Some entries whose results are on file:
COMPOUND	GI50
C#Cc1cccc(N2C(=O)c3c(c(-c4ccccc4)c(-c4ccc(Cc5ccc(-c6c(-c7ccccc7)c7c(c(-c8ccccc8)c6-c6ccccc6)C(=O)N(c6cccc(C#C)c6)C7=O)cc5)cc4)c(-c4ccccc4)c3-c3ccccc3)C2=O)c1	33 µM (inactive)
CCCCCCCCCc1nn2c(Cc3ccccc3)nnc2s1	18.7 µM (inactive)
CC1(O)CC(C(F)(F)F)(C(F)(F)F)OC1=O (stereo not given)	> 10 µM (inactive)

GI50 in this record for CCNC(=S)/N=c1\sc(NCC)nc2sc3c(c12)CCN(N1CCc2c(sc4nc(NCC)s/c(=N\C(=S)NCC)c24)C1)C3 : 33.3 µM (inactive)

GI50 in this record for O=S1(=O)OCCCOS(=O)(=O)C1(Br)Br : > 100 µM (inactive)

###

System: SF-295
Test: NCI tumour cell line growth inhibition, 48 h
Activity calls are given as the source filed them. Rule as the data show it: active = GI50 up to about 1.1 µM and inactive = higher.
Readings of GI50 for the listed compounds

Some entries whose results are on file:
COMPOUND	MEASURED ON	GI50
O=C(O)Cn1ncn(NC(=O)Cc2ccccc2)c1=S	SF-295	> 10 µM (inactive)
COc1cc(/C=C2\CC/C(=C\c3cc(OC)c(O)c(OC)c3)C2=O)cc(OC)c1O	SF-295	3.98 µM (inactive)

The reported SF-295 GI50 of O=C1C=CC(=O)c2c1ccc1c3ccccc3n(Cc3cccc([N+](=O)[O-])c3)c21 is > 100 µM (inactive)

The reported SF-295 GI50 of CC[S+](C)c1ccc(-c2c3nc(c(-c4ccc([S+](C)CC)cc4)c4ccc([nH]4)c(-c4ccc([S+](C)CC)cc4)c4nc(c(-c5ccc([S+](C)CC)cc5)c5ccc2[nH]5)C=C4)C=C3)cc1.[O-][Cl+3]([O-])([O-])[O-].[O-][Cl+3]([O-])([O-])[O-].[O-][Cl+3]([O-])([O-])[O-].[O-][Cl+3]([O-])([O-])[O-] (stereo not given) is 28.7 µM (inactive)

The reported SF-295 GI50 of CC(=O)OCC1OC(n2c3c(c(-c4ccco4)c(C#N)c2=S)CCCC3)C(OC(C)=O)C(OC(C)=O)C1OC(C)=O (stereo not given) is 13.7 µM (inactive)
